Ref: patent US20250388565A1

- target of assay: ERα protein (HiBiT-tagged) in ESR1_HiBiT KI MCF7 cells (Homo sapiens)
- Sequence (P03372 1-595): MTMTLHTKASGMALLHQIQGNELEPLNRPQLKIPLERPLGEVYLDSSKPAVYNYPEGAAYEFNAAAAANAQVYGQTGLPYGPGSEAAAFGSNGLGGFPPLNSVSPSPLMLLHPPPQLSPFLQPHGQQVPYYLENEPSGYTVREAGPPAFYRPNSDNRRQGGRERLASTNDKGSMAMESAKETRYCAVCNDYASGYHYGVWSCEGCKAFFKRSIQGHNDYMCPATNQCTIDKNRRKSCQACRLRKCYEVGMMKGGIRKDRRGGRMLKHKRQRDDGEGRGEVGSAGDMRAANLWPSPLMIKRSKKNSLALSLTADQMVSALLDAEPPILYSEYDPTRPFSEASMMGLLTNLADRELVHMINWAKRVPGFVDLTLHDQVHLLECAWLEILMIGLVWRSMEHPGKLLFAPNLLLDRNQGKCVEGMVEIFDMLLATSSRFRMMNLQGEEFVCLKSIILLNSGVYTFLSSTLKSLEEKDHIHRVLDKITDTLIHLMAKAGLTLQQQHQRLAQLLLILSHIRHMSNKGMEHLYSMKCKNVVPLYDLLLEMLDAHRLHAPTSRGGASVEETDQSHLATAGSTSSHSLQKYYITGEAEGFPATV
- test name: Nano Glo HiBiT Lytic Degradation Assay
- Assay type: cell-based
- test conditions: 6 hours with compound, 14-point dose response 1:3, bell-shape curve fit, half-maximal effect of first Hill model, read-out: MCF7 ESR1 HiBiT - (DC50)
Threshold 0.006 µM: DC50 strictly smaller gives yes, otherwise no.

Check out these entries, answers already filled in.
• Cc1ccc2c(c1)CC[C@H](c1ccccc1)[C@@H]2c1ccc(N2CCC(CN3CCN(c4ccc5c(c4)CN([C@H]4CCC(=O)NC4=O)C5=O)CC3)CC2)cc1 [Compound I-50] = no
• O=C1CC[C@H](N2Cc3cc(N4CCN(CC5CCN(c6ccc([C@@H]7c8ccc(C(F)(F)F)cc8CC[C@@H]7c7ccccc7)cc6)CC5)CC4)ccc3C2=O)C(=O)N1 [Compound I-46] = no
• O=C1CCC(N2Cc3cc([C@H]4CCN(CC5CCN(c6ccc([C@@H]7c8ccc(O)cc8CC[C@@H]7c7ccccc7)cc6)CC5)C[C@H]4O)ccc3C2=O)C(=O)N1 (single isomer, unassigned) [II-108] = yes
• O=C1CC[C@H](N2Cc3cc(N4CCN(CC5CCN(c6ccc([C@@H]7c8ccc(O)cc8CC[C@@H]7c7ccccc7)nc6)CC5)CC4)ccc3C2=O)C(=O)N1 [II-78] = yes
• O=C1CC[C@H](N2Cc3cc(N4CCN(CC5CCN(c6ccc([C@H]7c8ccc(O)cc8CO[C@H]7c7ccc8c(c7)CC8)cc6)CC5)CC4)ccc3C2=O)C(=O)N1 (single isomer, unassigned) [Compound I-364] = no
• O=C1CC[C@H](N2Cc3cc(N4CCN(CC5CCN(c6ccc([C@H]7c8ccc(O)cc8CO[C@@H]7C7CCCCC7)cc6)CC5)CC4)ccc3C2=O)C(=O)N1 [Compound I-248] = no

// query Given O=C1CC[C@H](N2Cc3cc(N4CCN(CC5CCN(c6ccc([C@@H]7c8ccc(O)cc8CC[C@@H]7C7CCCCC7)c(F)c6)CC5)CC4)ccc3C2=O)C(=O)N1 [Compound I-137] , is recorded DC50 strictly lower than 0.006 µM?
// result no

// query In plain terms, does C[C@@H]1Cc2cc(O)ccc2[C@H](c2ccc(N3CCC(CN4CCN(c5ccc6c(c5)CN([C@H]5CCC(=O)NC5=O)C6=O)CC4)CC3)cc2)[C@@H]1c1ccccc1 [Compound I-333] come in under 0.006 µM for DC50?
// result no

// query Dear reviewer, please state whether O=C1CCC(c2ccc3c(c2)C[C@@H](N2CCN(CC4CCN(c5ccc([C@@H]6c7ccc(O)cc7CC[C@@H]6c6ccccc6)cc5)CC4)CC2)CC3)C(=O)N1 (single isomer, unassigned) [Compound I-422] has DC50 strictly beneath 0.006 µM.
// result no
